Molecular target: Fibroblast growth factor 10 (Homo sapiens) (UniProt O15520)
Sequence (O15520 whole entry, looked up): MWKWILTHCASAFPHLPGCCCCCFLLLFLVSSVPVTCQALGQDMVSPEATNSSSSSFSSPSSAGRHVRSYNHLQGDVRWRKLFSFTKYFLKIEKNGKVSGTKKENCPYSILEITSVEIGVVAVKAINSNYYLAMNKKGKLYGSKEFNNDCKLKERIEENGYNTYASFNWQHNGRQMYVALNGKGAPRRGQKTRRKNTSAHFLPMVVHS
Assay: FGF10 binders on small-molecule microarrays, primary screen, biochemical, small-molecule microarray, 635 nm fluorescence (AID 1102)
Conditions: FGF10 binding, fluorescence 635 nm, higher = more signal
Listed compounds paired with reported composite z-score
Please reply with the value in numeric form only.

>  <COMPOUND>
CC(=O)NCCCC[C@@H]1NC(=O)[C@H]2C[C@@H](C(=O)O)[C@@H](c3cccc(OCCO)c3)N2C1=O

>  <ENDPOINT RESULT>
1.25

$$$$
>  <COMPOUND>
[N-]=[N+]=NCc1ccccc1[C@H]1OC(c2ccc(OCCCO)cc2)=N[C@@]1(Cc1ccccc1N=[N+]=[N-])C(N)=O

>  <ENDPOINT RESULT>
1.3

$$$$
>  <COMPOUND>
Cc1ccc(S(=O)(=O)N2[C@@H](c3ccccc3)C(C(=O)O)=C[C@H]2C(C)(C)C)cc1

>  <ENDPOINT RESULT>
0.644

$$$$
>  <COMPOUND>
CCCCN1CC=CC23O[C@@H]4/C=C\CCC(C)OC(=O)C4[C@H]2C(=O)N(CCO)[C@@H]3C1=O (some centres not stated)

>  <ENDPOINT RESULT>
-1.17

$$$$
>  <COMPOUND>
C=C(C(=O)CC[C@@H](OC(=O)c1cccnc1)c1cccc(OCCO)c1)C(C)C

>  <ENDPOINT RESULT>
0.959

$$$$

Task item: Fill in the recorded composite z-score for this compound, with Fibroblast growth factor 10 (Homo sapiens) (UniProt O15520) as test system: C=CCNC(=O)[C@H]1[C@@H]2C(=O)O[C@@H](c3ccccc3)[C@@H](c3ccccc3)N2[C@@H](c2ccc(O)cc2)[C@]12C(=O)N(C(=O)OCCOC)c1ccc(C#Cc3ccc(OC)cc3)cc12
Reply: 0.88

Task item: Fill in the recorded composite z-score for this compound, with Fibroblast growth factor 10 (Homo sapiens) (UniProt O15520) as test system: C=C(COC)/C(=C/C[C@@H](OC(C)=O)c1cccc(OCCO)c1)c1cnc2ccccc2c1
Reply: 1.56
